In this section, each of the molecules is paired with its reported viability, T/C.
Test system: 242566-281-R-J2-PDC complex spheroid viability
experimental-protocol: Anticancer human tumor 242566-281-R-J2-PDC patient-derived pancreatic carcinoma cell line growth inhibition [CLK]
settings: second compound 0.316 µM; first compound 0.0316 µM; hits give low values
A number alone suffices; assume %.

Take a look at these entries with their results.
molecule	viability, T/C [%]
Nc1ccccc1NC(=O)c1ccc(CNC(=O)OCc2cccnc2)cc1 + CN1CCN(c2cc(C(=O)Nc3cc4cc(-c5cnn(C)c5)ccc4cn3)ccn2)CC1	28.3
CC1COCCN1c1cc(C2(S(C)(=N)=O)CC2)nc(-c2ccnc3[nH]ccc23)n1 (stereo not given) + CNC(=O)c1ccc(Nc2nc(OC3CCCC3)c3c(-c4ccc5nc(C)oc5c4)c[nH]c3n2)c(OC)c1	76.8
COc1c(OCCCN2CCOCC2)ccc2c3n(c(=NC(=O)c4cnc(N)nc4)nc12)CCN3 + CNC(=O)c1ccc(Nc2nc(OC3CCCC3)c3c(-c4ccc5nc(C)oc5c4)c[nH]c3n2)c(OC)c1	48.8
O=c1[nH]cc(F)c(=O)[nH]1 + CNC(=O)c1ccc(Nc2nc(OC3CCCC3)c3c(-c4ccc5nc(C)oc5c4)c[nH]c3n2)c(OC)c1	86.1

Proceed to the following item.
Data request: Record request: viability, T/C value, item CCN1CCN(Cc2ccc(Nc3ncc(F)c(-c4cc(F)c5nc(C)n(C(C)C)c5c4)n3)nc2)CC1 + CN1CCN(c2cc(C(=O)Nc3cc4cc(-c5cnn(C)c5)ccc4cn3)ccn2)CC1
Data returned: 48.7

---

In this section, each of the molecules is paired with its reported viability, T/C.
Test system: 242566-281-R-J2-PDC complex spheroid viability
experimental-protocol: Anticancer human tumor 242566-281-R-J2-PDC cell line growth inhibition [CLK]
settings: second compound 1 µM; first compound 0.01 µM; hits give low values
A number alone suffices; assume %.

molecule	unit-tag	viability, T/C
CCN1CCN(Cc2ccc(Nc3ncc(F)c(-c4cc(F)c5nc(C)n(C(C)C)c5c4)n3)nc2)CC1 + CN1CCN(c2cc(C(=O)Nc3cc4cc(-c5cnn(C)c5)ccc4cn3)ccn2)CC1	%	4.89
Cn1ncnc1[C@H]1c2n[nH]c(=O)c3cc(F)cc(c23)N[C@@H]1c1ccc(F)cc1 + CN1CCN(c2cc(C(=O)Nc3cc4cc(-c5cnn(C)c5)ccc4cn3)ccn2)CC1	%	4.07

Proceed to the following item.
Data request: Record request: viability, T/C value, item Cn1ncnc1[C@H]1c2n[nH]c(=O)c3cc(F)cc(c23)N[C@@H]1c1ccc(F)cc1 + CNC(=O)c1ccc(Nc2nc(OC3CCCC3)c3c(-c4ccc5nc(C)oc5c4)c[nH]c3n2)c(OC)c1
Data returned: 64.8

---

In this section, each of the compounds is paired with its reported viability, T/C.
System: 242566-281-R-J2-PDC complex spheroid viability
experimental-protocol: Anticancer human tumor 242566-281-R-J2-PDC cell line growth inhibition [CLK]
settings: second compound 0.316 µM; first compound 1 µM; hits give low values
Source text: A high-throughput screen of multi-cell type tumor spheroids was designed to identify active combinations of […] and targeted small molecules. Complex spheroids include a stromal component modeled by human endothelial cells (HUVEC) and fibroblasts modeled by human mesenchymal stem cells (MSCs). […] Compounds. […] If the clinical Cmax for an agent had not been determined, the highest concentration tested was 10 microM. […]
A number alone suffices; assume %.

Take a look at these entries with their results.
compound	assay-system	recorded-measurement
COc1c(OCCCN2CCOCC2)ccc2c3n(c(=NC(=O)c4cnc(N)nc4)nc12)CCN3 + CNC(=O)c1ccc(Nc2nc(OC3CCCC3)c3c(-c4ccc5nc(C)oc5c4)c[nH]c3n2)c(OC)c1	242566-281-R-J2-PDC complex spheroid viability	10.7
O=C(c1cc(Cc2n[nH]c(=O)c3ccccc23)ccc1F)N1CCN(C(=O)C2CC2)CC1 + CN1CCN(c2cc(C(=O)Nc3cc4cc(-c5cnn(C)c5)ccc4cn3)ccn2)CC1	242566-281-R-J2-PDC complex spheroid viability	31.1

Data request: Lookup: viability, T/C / 242566-281-R-J2-PDC complex spheroid viability / CCc1c2c(nc3ccc(O)cc13)-c1cc3c(c(=O)n1C2)COC(=O)[C@]3(O)CC + CN1CCN(c2cc(C(=O)Nc3cc4cc(-c5cnn(C)c5)ccc4cn3)ccn2)CC1
Data returned: 1.15

---

In this section, each of the molecules is paired with its reported viability, T/C.
Tested on: 242566-281-R-J2-PDC complex spheroid viability
experimental-protocol: Anticancer human tumor 242566-281-R-J2-PDC cell line growth inhibition [CLK];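 also: spheroids exposed to compounds for 7 days before readout; 100% = DMSO vehicle control wells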
settings: second compound 10 µM; first compound 0.00949 µM; hits give low values
A number alone suffices; assume %.

Data request: Lookup: viability, T/C / 242566-281-R-J2-PDC complex spheroid viability / C=CC(=O)Nc1cc(Nc2nccc(-c3cn(C)c4ccccc34)n2)c(OC)cc1N(C)CCN(C)C + CNC(=O)c1ccc(Nc2nc(OC3CCCC3)c3c(-c4ccc5nc(C)oc5c4)c[nH]c3n2)c(OC)c1
Data returned: 51.1

---

System: 242566-281-R-J2-PDC complex spheroid viability
experimental-protocol: Anticancer human tumor 242566-281-R-J2-PDC cell line growth inhibition [CLK];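 also: spheroids exposed to compounds for 7 days before readout; 100% = DMSO vehicle control wells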
settings: second compound 0.0316 µM; first compound 0.316 µM; hits give low values
attribute-measured: viability, T/C (%)
A number alone suffices; assume %.

Take a look at these entries with their results.
compound	viability, T/C (%)
Nc1ccccc1NC(=O)c1ccc(CNC(=O)OCc2cccnc2)cc1 + CNC(=O)c1ccc(Nc2nc(OC3CCCC3)c3c(-c4ccc5nc(C)oc5c4)c[nH]c3n2)c(OC)c1	101
CC(CO)NC(=O)c1cc(-c2ccc(Cl)cc2)nn(-c2cnn(C)c2)c1=O (stereo not drawn) + CN1CCN(c2cc(C(=O)Nc3cc4cc(-c5cnn(C)c5)ccc4cn3)ccn2)CC1	129

Data request: Record request: viability, T/C value, item O=C(c1cc(Cc2n[nH]c(=O)c3ccccc23)ccc1F)N1CCN(C(=O)C2CC2)CC1 + CN1CCN(c2cc(C(=O)Nc3cc4cc(-c5cnn(C)c5)ccc4cn3)ccn2)CC1
Data returned: 94.9

---

Tested on: 242566-281-R-J2-PDC complex spheroid viability
experimental-protocol: Anticancer human tumor 242566-281-R-J2-PDC cell line growth inhibition [CLK]; active = viability on the fitted dose curve at most 10% of control; inactive = the rest;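 also: spheroids exposed to compounds for 7 days before readout; 100% = DMSO vehicle control wells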
settings: second compound 0.1 µM; first compound 0.316 µM
Parameter call: string, one of true (1) (active), false (0) (inactive)

compound	assay-system	label-value
CCc1c2c(nc3ccc(O)cc13)-c1cc3c(c(=O)n1C2)COC(=O)[C@]3(O)CC + CNC(=O)c1ccc(Nc2nc(OC3CCCC3)c3c(-c4ccc5nc(C)oc5c4)c[nH]c3n2)c(OC)c1	242566-281-R-J2-PDC complex spheroid viability	true (1)
C#Cc1c(F)ccc2cc(O)cc(-c3ncc4c(N5CC6CCC(C5)N6)nc(OCC56CCCN5CC(F)C6)nc4c3F)c12 (stereo not given) + CNC(=O)c1ccc(Nc2nc(OC3CCCC3)c3c(-c4ccc5nc(C)oc5c4)c[nH]c3n2)c(OC)c1	242566-281-R-J2-PDC complex spheroid viability	false (0)
CC1COCCN1c1cc(C2(S(C)(=N)=O)CC2)nc(-c2ccnc3[nH]ccc23)n1 (stereo not given) + CN1CCN(c2cc(C(=O)Nc3cc4cc(-c5cnn(C)c5)ccc4cn3)ccn2)CC1	242566-281-R-J2-PDC complex spheroid viability	false (0)
Nc1ccccc1NC(=O)c1ccc(CNC(=O)OCc2cccnc2)cc1 + CN1CCN(c2cc(C(=O)Nc3cc4cc(-c5cnn(C)c5)ccc4cn3)ccn2)CC1	242566-281-R-J2-PDC complex spheroid viability	false (0)

Field: next compound
Data request: What did this assay record as the result for CCN1CCN(Cc2ccc(Nc3ncc(F)c(-c4cc(F)c5nc(C)n(C(C)C)c5c4)n3)nc2)CC1 + CNC(=O)c1ccc(Nc2nc(OC3CCCC3)c3c(-c4ccc5nc(C)oc5c4)c[nH]c3n2)c(OC)c1 ?
Data returned: false (0)

---

Test system: 242566-281-R-J2-PDC complex spheroid viability
experimental-protocol: Anticancer human tumor 242566-281-R-J2-PDC cell line growth inhibition [CLK]; active means viability on the fitted dose curve at most 10% of control; inactive means the rest;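 also: spheroids exposed to compounds for 7 days before readout; 100% = DMSO vehicle control wells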
settings: second compound 0.1 µM; first compound 0.3 µM
Parameter call: string, one of 1 = active, 0 = inactive

Please review the following examples before continuing.
compound	label-value
C=CC(=O)Nc1cc(Nc2nccc(-c3cn(C)c4ccccc34)n2)c(OC)cc1N(C)CCN(C)C + CNC(=O)c1ccc(Nc2nc(OC3CCCC3)c3c(-c4ccc5nc(C)oc5c4)c[nH]c3n2)c(OC)c1	0
C=CC(=O)Nc1cc(Nc2nccc(-c3cn(C)c4ccccc34)n2)c(OC)cc1N(C)CCN(C)C + CN1CCN(c2cc(C(=O)Nc3cc4cc(-c5cnn(C)c5)ccc4cn3)ccn2)CC1	0
NC(=O)C(=Cn1cnc(-c2cc(C(F)(F)F)cc(C(F)(F)F)c2)n1)c1cncnc1 + CN1CCN(c2cc(C(=O)Nc3cc4cc(-c5cnn(C)c5)ccc4cn3)ccn2)CC1	0
CC(C)CC(NC(=O)C(Cc1ccccc1)NC(=O)c1cnccn1)B(O)O (stereo unspecified) + CN1CCN(c2cc(C(=O)Nc3cc4cc(-c5cnn(C)c5)ccc4cn3)ccn2)CC1	1
NC(=O)C(=Cn1cnc(-c2cc(C(F)(F)F)cc(C(F)(F)F)c2)n1)c1cncnc1 + CNC(=O)c1ccc(Nc2nc(OC3CCCC3)c3c(-c4ccc5nc(C)oc5c4)c[nH]c3n2)c(OC)c1	0

Field: next compound
Data request: What did this assay record as the result for CC(C)CC(NC(=O)C(Cc1ccccc1)NC(=O)c1cnccn1)B(O)O (stereo unspecified) + CNC(=O)c1ccc(Nc2nc(OC3CCCC3)c3c(-c4ccc5nc(C)oc5c4)c[nH]c3n2)c(OC)c1 ?
Data returned: 1
